Please consider the recorded pIC50 for Nicotinamide phosphoribosyltransferase (Homo sapiens, UniProt P43490) in what follows.
Remember, pIC50 is on a log scale: it is -log10 of the molar concentration.

A selection of reference data follows.
1. O=C(NCc1ccc(S(=O)(=O)c2ccc(F)c(F)c2)cc1)c1cc2cnccc2[nH]1 : 8.00
2. Cc1cccc(S(=O)(=O)c2ccc(CNC(=O)c3cc4cnccc4[nH]3)cc2)c1 : 8.10
3. O=C(NCc1ccc(S(=O)(=O)c2ccc(F)cc2)cc1)c1cc2cnccc2[nH]1 : 7.77

# get_value(readout= pIC50, system= Nicotinamide phosphoribosyltransferase (Homo sapiens, UniProt P43490)) for O=C(NCc1ccc(S(=O)(=O)c2ccccc2)cc1)c1cn2ccnc2cn1
6.82

Lab note: need pIC50 for O=C(NCc1ccc(S(=O)(=O)c2cccc(C(F)(F)F)c2)cc1)c1ccc2nccn2c1 on Nicotinamide phosphoribosyltransferase (Homo sapiens, UniProt P43490), anyone have it?
8.10

API: value(readout= pIC50, system= Nicotinamide phosphoribosyltransferase (Homo sapiens, UniProt P43490), query= O=C(NCCc1ccc(S(=O)(=O)c2ccccc2)cc1)c1cc2cnccc2[nH]1 )
6.01
